Biological target: c-Kit(V654A) (Homo sapiens, UniProt P10721, V654A)
Construct: recombinant human c-Kit, amino acids 544-end containing the V654A mutation; GST (N)
Sequence (P10721 544-976 V654A): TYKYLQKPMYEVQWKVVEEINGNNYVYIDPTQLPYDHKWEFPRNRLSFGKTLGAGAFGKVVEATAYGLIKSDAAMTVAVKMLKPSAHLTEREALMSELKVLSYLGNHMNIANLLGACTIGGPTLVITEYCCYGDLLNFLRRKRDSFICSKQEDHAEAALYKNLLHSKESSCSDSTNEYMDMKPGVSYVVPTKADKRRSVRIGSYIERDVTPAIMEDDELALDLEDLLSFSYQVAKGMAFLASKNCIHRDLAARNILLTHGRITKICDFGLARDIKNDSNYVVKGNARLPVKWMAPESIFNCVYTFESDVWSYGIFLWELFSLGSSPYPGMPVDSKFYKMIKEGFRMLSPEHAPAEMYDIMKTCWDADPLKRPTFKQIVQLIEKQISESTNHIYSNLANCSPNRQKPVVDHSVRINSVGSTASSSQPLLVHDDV
Assay: c-Kit(V654A) assay (33P-ATP filter binding kinase assay)
Conditions: recombinant human c-Kit aa 544-end V654A, ATP 200 μM
experimentalEndpoint: pIC50
Keep in mind that pIC50 stands for -log10 of concentration in molar terms.

Recorded results for 4 molecules are shown here.
# compound, measuredOn, endpointResult
records = [
    ("FC(F)(F)Oc1ccc(CNc2cc(-c3cnc4cc(OCCN5CCn6nncc6C5)ccn34)ncn2)cc1", "c-Kit(V654A) (Homo sapiens, UniProt P10721, V654A)", 8.17),
    ("COc1ccn2c(-c3cc(NCc4ccc(-c5nc(C)no5)cc4)ncn3)cnc2c1", "c-Kit(V654A) (Homo sapiens, UniProt P10721, V654A)", 8.00),
    ("COc1ccn2c(-c3cc(NCc4ccc(-c5noc(C)n5)cc4)ncn3)cnc2c1", "c-Kit(V654A) (Homo sapiens, UniProt P10721, V654A)", 8.07),
    ("Cn1cc(-c2ccc(CNc3cc(-c4cnc5cc(OC6CCN(C7COC7)CC6)ccn45)ncn3)cc2)cn1", "c-Kit(V654A) (Homo sapiens, UniProt P10721, V654A)", 7.96),
]

Now consider a different molecule.
Requested field: pIC50. Item: `Cn1cc(-c2ccc(CNc3cc(-c4cnc5cc(OCCN6CC(C)(C#N)C6)ccn45)ncn3)cc2)cn1`
8.15

====

In this section, each of the compounds is paired with its reported pIC50.
Molecular target: GIST430/654 cell line expressing mutated constitutively active cKIT receptor tyrosine kinase (Δ560-576 deletion and V654A point mutation) (Homo sapiens, UniProt P10721, DEL560-576/V654A)
Construct: endogenous in cells
Sequence (P10721 with tags, fused parts or gaps DEL560-576/V654A): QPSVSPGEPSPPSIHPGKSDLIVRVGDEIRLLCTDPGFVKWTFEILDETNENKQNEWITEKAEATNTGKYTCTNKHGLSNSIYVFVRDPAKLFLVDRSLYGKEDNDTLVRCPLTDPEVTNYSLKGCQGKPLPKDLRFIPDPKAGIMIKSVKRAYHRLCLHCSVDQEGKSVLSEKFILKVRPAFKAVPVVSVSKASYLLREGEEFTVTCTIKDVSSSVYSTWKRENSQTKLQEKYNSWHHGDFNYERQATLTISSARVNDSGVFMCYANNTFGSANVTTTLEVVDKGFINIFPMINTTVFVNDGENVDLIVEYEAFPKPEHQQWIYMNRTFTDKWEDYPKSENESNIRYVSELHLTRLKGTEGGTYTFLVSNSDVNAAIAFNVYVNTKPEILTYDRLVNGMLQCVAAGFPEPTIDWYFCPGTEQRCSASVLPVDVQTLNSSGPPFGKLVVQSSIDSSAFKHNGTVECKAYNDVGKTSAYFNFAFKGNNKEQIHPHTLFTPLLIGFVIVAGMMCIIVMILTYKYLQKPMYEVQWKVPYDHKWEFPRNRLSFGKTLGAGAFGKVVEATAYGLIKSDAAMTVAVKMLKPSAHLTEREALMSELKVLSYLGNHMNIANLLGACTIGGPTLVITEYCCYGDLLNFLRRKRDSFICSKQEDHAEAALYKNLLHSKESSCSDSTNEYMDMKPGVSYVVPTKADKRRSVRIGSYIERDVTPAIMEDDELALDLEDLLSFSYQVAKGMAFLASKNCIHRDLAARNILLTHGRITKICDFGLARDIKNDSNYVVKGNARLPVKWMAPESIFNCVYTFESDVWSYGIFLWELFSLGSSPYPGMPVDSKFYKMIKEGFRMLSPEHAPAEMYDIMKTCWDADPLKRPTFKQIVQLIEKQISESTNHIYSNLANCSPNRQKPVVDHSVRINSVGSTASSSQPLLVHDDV
Assay: Cellular cKIT autophosphorylation (phospho-Y307-cKIT, Luminex bead assay) in GIST430/654 cells
Conditions: compounds 45 min, read-out: GIST 430/654 IC50
pIC50 field: float, defined as -log10 of concentration (mol/L).

Sample answers from the record:
# compound, pIC50
data = [
    ("Cn1cc(-c2ccc(CNc3cc(-c4cnc5cc(OCC6CNC6)ccn45)ncn3)cc2)cn1 [A167]", 6.30),
    ("Cn1cc(-c2ccc(CNc3cc(-c4cnc5cc(N6CCC(CCO)C6)ccn45)ncn3)cc2)cn1 (stereo not shown) [A178]", 7.33),
    ("Cn1cc(-c2ccc(CNc3cc(-c4cnc5cc(OCCN6CCC(C)(F)CC6)ccn45)ncn3)cc2)cn1 [A196]", 6.85),
]

API: the following record is the query input.
Value lookup for pIC50; key = CN1CCO[C@H](COc2ccn3c(-c4cc(NCc5ccc(-c6cnn(C)n6)cc5)ncn4)cnc3c2)C1 [A122]
6.59

====

Target: GIST430 cell line expressing constitutive active cKIT receptor tyrosine kinase (Δ560-576 deletion) (Homo sapiens, UniProt P10721, DEL560-576)
Construct: endogenous in cells; host or cells: GIST430 cells
Sequence (P10721 with tags, fused parts or gaps DEL560-576): as the sequence (P10721 with tags, fused parts or gaps DEL560-576/V654A) above, with A612V counted along it
Experiment: Cellular cKIT autophosphorylation (phospho-Y307-cKIT, Luminex bead assay) in GIST430 cells
Type: cell-based
Settings: cKIT autophosphorylation, GIST430 cells, compounds 45 min; read-out: GIST 430 IC50
Reported IC50 values for the following molecules.
Numeric only. Scale: nM

For orientation, consider the following solved cases.
# compound, IC50, nM
rows = [
    ("CNC1CN(c2ccn3c(-c4cc(NCc5ccc(-c6cnn(C)c6)cc5)ncn4)cnc3c2)C1", 10),
    ("c1ccn2c(-c3cc(NCc4ccc(N5CCCC5)nc4)ncn3)cnc2c1", 7.3),
    ("COCCOc1ccn2c(-c3cc(NCc4ccc(-c5ccccc5)cc4)ncn3)cnc2c1", 7.7),
    ("COc1ccn2c(-c3cc(NCc4ccc(-c5cccnc5)cc4)ncn3)cnc2c1", 20),
]

Bench note: what IC50 did `Cn1cc(-c2ccc(CNc3cc(-c4cnc5cc(OCCCN6CCC6)ccn45)ncn3)cc2)cn1` show?
3

Which IC50 reading was recorded for the molecule `COCCOc1ccn2c(-c3cc(NCc4ccc(-c5cnn(C)c5)nc4)ncn3)cnc2c1` ?
7

Which IC50 value belongs to `Cn1cc(-c2ccc(CNc3cc(-c4cnc5cc(OCCCN[C@@H]6CCOC6)ccn45)ncn3)cc2)cn1` ?
1.9

What value of IC50 has been reported for the following molecule? `Cc1nc(-c2ccc(CNc3cc(-c4cnc5cc(OCCN6CCC(=O)N(C)CC6)ccn45)ncn3)cc2)co1`
1.4

Fill blank: measured IC50 of the molecule `CO[C@@H]1CCN(c2ccc(CNc3cc(-c4cnc5ccccn45)ncn3)cn2)C1` is ____.
48

====

log10 IC50 by entry:
Biological target: GIST430/654 cell line expressing mutated constitutively active cKIT receptor tyrosine kinase (Δ560-576 deletion and V654A point mutation) (Homo sapiens, UniProt P10721, DEL560-576/V654A)
Construct: endogenous in cells; host or cells: GIST430/654 cells
Experiment: Cellular cKIT autophosphorylation (phospho-Y307-cKIT, Luminex bead assay) in GIST430/654 cells
Assay type: cell-based
Conditions: compounds 45 min, read-out: GIST 430/654 IC50
The base-10 logarithm of IC50, taken with IC50 in nM, is what appears here.

Worked examples, 3 compounds total:
# compound, experimentalEndpoint, endpointResult
records = [
    ("Cn1cc(-c2ccc(CNc3cc(-c4cnc5cc(OCCC[N+]6([O-])CCCC6)ccn45)ncn3)cc2)cn1 [A228]", "log10 IC50", 1.64),
    ("COCCOc1ccn2c(-c3cc(NCc4ccc(-n5ccnn5)cc4)ncn3)cnc2c1 [A16]", "log10 IC50", 2.11),
    ("Cn1ncc(-c2ccc(CNc3cc(-c4cnc5cc(N6CCCC6)ccn45)ncn3)cc2)n1 [A232]", "log10 IC50", 2.23),
]

For the compound shown here, Cn1ncc(-c2ccc(CNc3cc(-c4cnc5cc(OCCO)ccn45)ncn3)cc2)n1 [A173] , give the reported log10 IC50.
1.76

Record request: log10 IC50 value, item Cn1ncc(-c2ccc(CNc3cc(-c4cnc5cc(OCC(C)(C)N6CCOCC6)ccn45)ncn3)cc2)n1 [A109]
1.90

So what does the record say about log10 IC50 for Cn1cc(-c2ccc(CNc3cc(-c4cnc5cc(-c6cnn(C)c6)ccn45)ncn3)cc2)cn1 [A226] ?
1.71

I am curious: what log10 IC50 value has been reported for Cn1cc(-c2ccc(CNc3cc(-c4cnc5cc(OCCN6CC(C)(C#N)C6)ccn45)ncn3)cc2)cn1 [A206] ?
2.00

I am curious: what log10 IC50 value has been reported for Cn1cc(-c2ccc(CNc3cc(-c4cnc5cc(OCCN6Cc7ccncc7C6)ccn45)ncn3)cc2)cn1 [A195] ?
1.86

====

Overview of reported log10 IC50 across a group of molecules:
Target: c-Kit(V654A) (Homo sapiens, UniProt P10721, V654A)
Construct: recombinant human c-Kit, amino acids 544-end containing the V654A mutation; GST (N)
Test: c-Kit(V654A) assay (33P-ATP filter binding kinase assay)
Conditions: recombinant human c-Kit aa 544-end V654A, ATP 200 μM
Plainly stated, the numbers are log10 of IC50 given in µM.

# molecule, measuredOn, endpointResult
data = [
    ("c1ccn2c(-c3cc(NCc4ccc(C5=NCCN5)cc4)ncn3)cnc2c1 [A15]", "c-Kit(V654A) (Homo sapiens, UniProt P10721, V654A)", -0.49),
    ("Cn1cc(-c2ccc(CNc3cc(-c4cnc5cc(OCCCN6CCCC6=O)ccn45)ncn3)cc2)cn1 [A145]", "c-Kit(V654A) (Homo sapiens, UniProt P10721, V654A)", -1.39),
    ("CN1CCN(CCCOc2ccn3c(-c4cc(NCc5ccc(-c6cnn(C)c6)cc5)ncn4)cnc3c2)CC1 [A94]", "c-Kit(V654A) (Homo sapiens, UniProt P10721, V654A)", -2.17),
]

Please find the next molecule below.
Item under review: Cn1cc(-c2ccc(CNc3cc(-c4cnc5cc(OCCCS(C)(=O)=O)ccn45)ncn3)cc2)cn1 [A143] . Reported log10 IC50?
-1.68

====

Biological target: c-Kit(V654A) (Homo sapiens, UniProt P10721, V654A)
Construct: recombinant human c-Kit, amino acids 544-end containing the V654A mutation; GST (N)
Test: c-Kit(V654A) assay (33P-ATP filter binding kinase assay)
Conditions: recombinant human c-Kit aa 544-end V654A, ATP 200 μM
Procedure: c-Kit(V654A) (N-terminal GST-tagged, recombinant human c-Kit, amino acids 544-end containing the V654A mutation) is incubated with 8 mM MOPS pH 7.0, 0.2 mM EDTA, 250 μM GGMEDIYEFMGGKKK, 10 mM MgAcetate and [gamma-33P-ATP] (specific activity approx. 500 cpm/pmol, concentration 200 μM). The reaction is initiated by the addition of the MgATP mix. After incubation for 40 minutes at room temperature, the reaction is stopped by the addition of 3% phosphoric acid solution. […]
Overview of recorded pIC50 for various molecules
As a rule, pIC50 stands for the negative log10 of the concentration, concentration in M.

Please review the entries below; each comes with its answer.
# molecule, pIC50
data = [
    ("Cn1cc(-c2ccc(CNc3cc(-c4cnc5cc(OCC6CCN(CC(F)F)CC6)ccn45)ncn3)cc2)cn1", 7.55),
    ("Cn1cc(-c2ccc(CNc3cc(-c4cnc5cc(NC(C)(C)CO)ccn45)ncn3)cc2)cn1", 7.07),
    ("CN(CC#N)CCOc1ccn2c(-c3cc(NCc4ccc(-c5cnn(C)c5)cc4)ncn3)cnc2c1", 8.00),
    ("COc1ccn2c(-c3cc(NCc4ccc(-c5ccccc5)cc4)ncn3)cnc2c1", 8.26),
    ("Cn1cc(-c2ccc(CNc3cc(-c4cnc5cc(N6CCC(O)C6)ccn45)ncn3)cc2)cn1 (centres unmarked)", 7.89),
    ("Cn1ncc(-c2ccc(CNc3cc(-c4cnc5cc(N6CCCC6)ccn45)ncn3)cc2)n1", 7.64),
]

For `Cn1cc(-c2ccc(CNc3cc(-c4cnc5cc(N6CCC7(COC7)C6)ccn45)ncn3)cc2)cn1` , what is its reported pIC50?
8.11

Please give the measured pIC50 for this molecule: c1ccn2c(-c3cc(NCc4ccc(N5CC6CC6C5)nc4)ncn3)cnc2c1 (centres unmarked)
8.21

Item under review: `COc1ccn2c(-c3ncnc(NCc4ccc(-c5cnn(C)c5)cc4)c3F)cnc2c1` . Reported pIC50?
8.18

Quick one: pIC50 of `CN1CCN(CCOc2ccn3c(-c4cc(NCc5ccc(-c6cnn(C)c6)cc5)ncn4)cnc3c2)CC1=O` ?
7.89

Entry `COc1ccn2c(-c3cc(NCc4ccc(-n5ccnn5)cc4)ncn3)cnc2c1` : reported pIC50 = ?
7.89
